assay: Redox activity of activators and inhibitors of membrane-bound transport proteins (overview statement); type: physicochemical; details: activators and inhibitors of the sarcoplasmic reticulum calcium release channel; no reference given
testReadout: redox activity (electron donor or electron acceptor)

N[C@@H](CS)C(=O)O [cysteine] :: electron donors
O=C1c2c(O)ccc(O)c2C(=O)c2c(NCCNCCO)ccc(NCCNCCO)c21 [mitoxantrone] :: electron acceptors
CCCCNc1ccc(C(=O)OCCN(C)C)cc1 [tetracaine] :: electron donors
CCN(CC)CCOC(=O)c1ccc(N)cc1 [procaine] :: electron donors
N[C@@H](CSSC[C@H](N)C(=O)O)C(=O)O [cystine] :: electron acceptors

Documented redox activity (electron donor or electron acceptor) of Cn1c(=O)c2c(ncn2C)n(C)c1=O [caffeine] : electron acceptors

###

test: Redox activity by reaction with photo-excited dye under aerobic conditions (probe reduction at 470 nm and dye photo-bleaching); assay type: physicochemical; settings: conclusion from the photo-excited dye assay of the respective example
testReadout: redox activity (electron donor or electron acceptor)

CCCCNc1ccc(C(=O)OCCN(C)C)cc1 :: electron donors
CC[C@H]1[C@@H]2C[C@H]3[C@@H]4N(C)c5ccccc5[C@]45C[C@@H]([C@@H]2[C@H]5O)N3[C@@H]1O :: electron donors

###

assay: Redox activity of activators and inhibitors of membrane-bound transport proteins (overview statement); assay type: physicochemical; conditions: activators and inhibitors of the sarcoplasmic reticulum calcium release channel; no reference given
testReadout: redox activity (electron donor or electron acceptor)

CN(C)C(=O)/N=N/C(=O)N(C)C [diamide] :: electron acceptors
COc1cccc2c1C(=O)c1c(O)c3c(c(O)c1C2=O)C[C@@](O)(C(=O)CO)C[C@@H]3O[C@H]1C[C@H](N)[C@H](O)[C@H](C)O1 [doxorubicin] :: electron acceptors
